Please provide measured pKi for the entries that follow.
molecular target: Sigma non-opioid intracellular receptor 1 (Cavia porcellus); assay: Displacement of [3H](+)-pentazocine from Sigma opioid receptor type 1 in guinea pig brain membrane
When answering, recall that pKi equals minus log10 of the concentration in mol/L, and write that number alone.

Q: # get_value(readout='pKi', item= `CN(CCc1ccccc1N)CCN1CCCC1` )
Ans: 6.54

Q: Which pKi is reported for this molecule? `COc1ccc(CC(=O)N(C)CCN2CCCC2)cc1`
Ans: 5.65

Q: Fill in: pKi of `COc1cccc(CC(=O)N(C)CCN2CCCC2)c1` is ___
Ans: 5.51

Q: Entry `CN(CCN1CCCC1)C(=O)Cc1cccc([N+](=O)[O-])c1` has what pKi?
Ans: 5.73

Q: Query: pKi; subject: `CN(CCc1cccc(N)c1)CCN1CCCC1`
Ans: 6.24

Q: Query (molecule): `CN(CCN1CCCC1)C(=O)Cc1ccc([N+](=O)[O-])cc1` ; field requested: pKi
Ans: 6.06

Q: I'd like to know its pKi. The molecule in question is `COc1ccccc1CCN(C)CCN1CCCC1`
Ans: 7.80
